Biological target: Recombinant human TPH1 (MBP tagged) (Homo sapiens)
Construct: cloning full length human TPH1 cDNA in to a bacterial pMAL-c5E expression vector; made in house; host or cells: E. coli BL21 (DE3)
Sequence (P17752 1-444): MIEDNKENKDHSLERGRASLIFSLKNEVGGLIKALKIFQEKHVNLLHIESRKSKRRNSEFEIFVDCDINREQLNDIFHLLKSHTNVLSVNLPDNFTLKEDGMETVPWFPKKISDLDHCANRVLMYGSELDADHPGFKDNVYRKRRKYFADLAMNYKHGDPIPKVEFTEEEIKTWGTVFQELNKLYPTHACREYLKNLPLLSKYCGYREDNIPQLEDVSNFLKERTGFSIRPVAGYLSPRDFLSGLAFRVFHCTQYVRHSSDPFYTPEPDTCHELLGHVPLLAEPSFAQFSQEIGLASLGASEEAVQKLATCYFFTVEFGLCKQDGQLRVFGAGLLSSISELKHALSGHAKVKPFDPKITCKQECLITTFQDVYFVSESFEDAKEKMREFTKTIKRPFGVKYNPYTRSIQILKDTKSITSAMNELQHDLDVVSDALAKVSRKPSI
Assay: TPH1 in vitro inhibition assay (kinetic fluorescence)
Format: biochemical
Details: read-out: TPH1 Range (TPH1 inhibition IC50)
# IC50 per record follows

- Compound: "Cc1ccc(-c2cc(Cl)ccc2[C@@H](Oc2cc(N3CCC4(CC3)CN[C@H](C(=O)O)C4)nc(N)n2)C(F)(F)F)cc1Cl [Example 34aj]"
  IC50: "50 to 300 nM"
- Compound: "Nc1nc(O[C@H](c2ccc(-c3cccc(C(F)(F)F)c3)cc2)C(F)(F)F)cc(N2CCC3(CC2)CN[C@H](C(=O)O)C3)n1 [Example 55as]"
  IC50: "50 to 300 nM"
- Compound: "Cc1ccn(-c2cc(-c3cccc(C(F)(F)F)c3)ccc2[C@@H](Oc2cc(N3CCC4(CC3)CN[C@H](C(=O)O)C4)nc(N)n2)C(F)(F)F)n1"
  IC50: "< 50 nM"
- Compound: "CN(C)C(=O)c1ccc(-c2ccc([C@@H](Oc3cc(N4CCC5(CC4)CN[C@H](C(=O)O)C5)nc(N)n3)C(F)(F)F)cc2)cc1 [Example 55bw]"
  IC50: "50 to 300 nM"
- Compound: "Cc1ccn(-c2cc(-c3cc(Cl)cc(Cl)c3)ccc2[C@@H](Oc2cc(N3CCC4(CC3)CN[C@H](C(=O)O)C4)nc(N)n2)C(F)(F)F)n1"
  IC50: "< 50 nM"
- Compound: "Nc1nc(O[C@H](c2ccc(-c3ccc4ncncc4c3)cc2)C(F)(F)F)cc(N2CCC3(CC2)CN[C@H](C(=O)O)C3)n1 [Example 55bk]"
  IC50: "50 to 300 nM"

###

Target: Recombinant human TPH1 (MBP tagged) (Homo sapiens)
Construct: cloning full length human TPH1 cDNA in to a bacterial pMAL-c5E expression vector; made in house; host or cells: E. coli BL21 (DE3)
Experiment: TPH1 in vitro inhibition assay (kinetic fluorescence)
Type: biochemical
Conditions: read-out: TPH1 Range (TPH1 inhibition IC50)
# IC50 per record follows
Property label: IC50

- Compound: "Cc1ccn(-c2cc(Cl)ccc2[C@@H](Oc2ccnc(N3CCC4(CC3)CN[C@H](C(=O)O)C4)c2)C(F)(F)F)n1"
  Value: "50 to 300 nM"
- Compound: "Nc1nc(O[C@H](c2ccc(-c3cccc(C(=O)N4CCCCC4)c3)cc2)C(F)(F)F)cc(N2CCC3(CC2)CN[C@H](C(=O)O)C3)n1 [Example 55bx]"
  Value: "300 to 3000 nM"
- Compound: "Cc1ccn(-c2cc(-c3cc(F)c(F)c(F)c3)ccc2[C@@H](Oc2cc(N3CCC4(CC3)CN[C@H](C(=O)O)C4)nc(N)n2)C(F)(F)F)n1"
  Value: "50 to 300 nM"
- Compound: "Nc1nc(O[C@H](c2ccc(Cl)cc2-c2cccc(O)c2)C(F)(F)F)cc(N2CCC3(CC2)CN[C@H](C(=O)O)C3)n1 [Example 34v]"
  Value: "< 50 nM"
- Compound: "Cc1ccn(-c2cc(C3=CCOCC3)ccc2[C@@H](Oc2cc(N3CCC4(CC3)CN[C@H](C(=O)O)C4)nc(N)n2)C(F)(F)F)n1"
  Value: "50 to 300 nM"
- Compound: "Cc1ccn(-c2cc(-c3cnn(C)c3)ccc2[C@@H](Oc2cc(N3CCC4(CC3)CN[C@H](C(=O)O)C4)nc(N)n2)C(F)(F)F)n1"
  Value: "< 50 nM"

Entry source: patent US11759462B2
